Listed here are binders together with their documented neutralization IC50.
target: Env of HIV-1 strain 231965.c1 (HIV-1); experiment: cell-based or functional assay
# output: bare number, implied unit µg/mL

Consider the following illustrative entries.
binder | neutralization IC50 (µg/mL)
γ3κ3 (antibody, V domains shown) VH: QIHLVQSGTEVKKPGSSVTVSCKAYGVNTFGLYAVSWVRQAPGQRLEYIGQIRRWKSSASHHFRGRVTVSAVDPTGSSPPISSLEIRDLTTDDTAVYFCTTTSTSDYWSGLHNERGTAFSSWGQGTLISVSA VL: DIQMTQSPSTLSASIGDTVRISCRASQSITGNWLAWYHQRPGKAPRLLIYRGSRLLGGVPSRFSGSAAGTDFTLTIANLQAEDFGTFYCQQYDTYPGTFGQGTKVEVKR | 0.727
8ANC3484 (antibody, V domains shown) VH: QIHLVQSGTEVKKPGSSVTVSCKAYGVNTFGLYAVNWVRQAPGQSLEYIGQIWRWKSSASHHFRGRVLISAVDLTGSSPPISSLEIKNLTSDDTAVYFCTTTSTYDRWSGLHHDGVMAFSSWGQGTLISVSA VL: DIQMTQSPSTLSASIGDTVRISCRASQSITGNWVAWYQQRPGKAPRLLIYRGAALLGGVPSRFRGSAAGTDFTLTIGNLQAEDFGTFYCQQYDTYPGTFGQGTKVEVKR | 0.294

Param item = 8ANC3630 (antibody, V domains shown) VH: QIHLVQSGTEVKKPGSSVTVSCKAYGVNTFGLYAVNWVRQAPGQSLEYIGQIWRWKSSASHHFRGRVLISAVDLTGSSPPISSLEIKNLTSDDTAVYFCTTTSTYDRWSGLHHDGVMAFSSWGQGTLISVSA VL: DIQMTQSPSTLSASIGDTVRISCRASQSITGGWLAWYHQRPGKAPRLLIYRGSRLLGGVPSRFSGSAAGTDFTLTIANLQAEDFGTFYCQQYDTYPGTFGQGTKVEVKR ; retrieve measured neutralization IC50.
0.375
